Source of measurements: patent US20250326839A1

Quick reference for Binding Signal among some binders
Target: T1, human TREM2 (human, UniProt Q9NZC2 19-174, limits assumed)
T1 construct: also called triggering receptor expressed on myeloid cells 2
T1 sequence: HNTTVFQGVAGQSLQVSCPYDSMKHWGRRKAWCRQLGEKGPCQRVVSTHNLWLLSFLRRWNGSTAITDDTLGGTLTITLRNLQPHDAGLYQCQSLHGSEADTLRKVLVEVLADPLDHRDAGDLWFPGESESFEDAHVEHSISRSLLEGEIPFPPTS
Assay: 1st screen, 10 nM Ab
RESULT_TYPE: Binding Signal

V49 (antibody, V domains shown, also called 6E7 variant V49; LV-106/HV-106) VH: EVQLVQSGAEVKKPGESLKISCKGSGYSFNSYWIAWVRQMPGKGLEWMGTIYPGDSDTRLSPSFQGQVTISADKSISTAYLQWSSLKASDTAMYFCARSRTFYYDSSDYFDYWGQGTLVTVSS VL: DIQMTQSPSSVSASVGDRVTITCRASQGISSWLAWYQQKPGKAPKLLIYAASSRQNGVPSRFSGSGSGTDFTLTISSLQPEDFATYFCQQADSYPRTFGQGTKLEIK : 6.51 fold over 6E7 parental antibody
V16 (antibody, V domains shown, also called 6E7 variant V16) VH: EVQLVQSGAEVKKPGESLKISCKGSGYSMTSYWIAWVRQMPGKGLEWMGIIYPGDGDTRYSPSFQGQVTISADKSISTAYLQWSSLKASDTAMYFCARSRTFYYDSSDYFDYWGQGTLVTVSS VL: DIQMTQSPSSVSASVGDRVTITCRASQGISSWLAWYQQKPGKAPKLLIYAASNLQNGVPSRFSGSGSGTDFTLTISSLQPEDFATYFCQQADSFPRTFGQGTKLEIK : 4.01 fold over 6E7 parental antibody
